assay: Tanguay_ZF_120hpf_YSE_legacy: (Legacy) Oregon State University Tanguay Lab 120 Hour Post-fertilization zebrafish Assay for Yolk Sac Edema (AID 2283634)
Inconclusive results are not listed. The source made the active and inactive calls. Rule for the calls: active = hit-call score of the fitted dose curve at least 0.9, where 1 is the maximum; inconclusive = response in the unintended direction; inactive = score below 0.9.
Returns: one label drawn from 1.0 (active), 0.0 (inactive)

GET /call?item= CCSC(=O)N(CC(C)C)CC(C)C returns the recorded outcome of this test. 0.0

GET /call?item= CCOC(=O)c1ccc(O)cc1 returns the recorded outcome of this test. 0.0

GET /call?item= CCCOC(=O)c1ccc(C(=O)OCCC)nc1 returns the recorded outcome of this test. 1.0

GET /call?item= CCCN(CCC)c1c([N+](=O)[O-])cc(C(F)(F)F)c(N)c1[N+](=O)[O-] returns the recorded outcome of this test. 0.0

GET /call?item= CCCCOC(=O)[C@@H](C)Oc1ccc(Oc2ccc(C(F)(F)F)cn2)cc1 returns the recorded outcome of this test. 0.0

GET /call?item= O=C(c1ccc(O)cc1O)c1ccc(O)cc1O returns the recorded outcome of this test. 0.0

GET /call?item= CC(=O)S[C@@H]1CC2=CC(=O)CC[C@]2(C)[C@H]2CC[C@@]3(C)[C@@H](CC[C@@]34CCC(=O)O4)[C@H]12 returns the recorded outcome of this test. 0.0

GET /call?item= CCCCCCC(C)OC(=O)COc1nc(F)c(Cl)c(N)c1Cl (stereo not drawn) returns the recorded outcome of this test. 0.0

###

molecular target: Nuclear receptor subfamily 4 group A member 2 (Homo sapiens); assay: ATG_NURR1_TRANS: Attagene TRANS-FACTORIAL HepG2 Assay for human Nuclear Receptor Related Protein 1 (NURR1) (AID 2282985); settings: HepG2 Attagene TRANS reporter, mRNA readout
Results filed as inconclusive are left out. Active and inactive are the calls of the source. The calls were made as follows: active = hit-call score of the fitted dose curve at least 0.9, where 1 is the maximum; inconclusive = response in the unintended direction; inactive = score below 0.9.
Returns: one label drawn from 1 for active, -1 for inactive

GET /call?item= CC(=O)[C@H]1CC[C@H]2[C@@H]3CCC4=CC(=O)CC[C@]4(C)[C@H]3CC[C@]12C returns the recorded outcome of this test. -1

GET /call?item= CCCOC(=O)c1ccc(C(=O)OCCC)nc1 returns the recorded outcome of this test. -1

GET /call?item= OB(O)O returns the recorded outcome of this test. -1

GET /call?item= Cc1nn(C)c(Oc2ccccc2)c1C=NOCc1ccc(C(=O)OC(C)(C)C)cc1 returns the recorded outcome of this test. -1

GET /call?item= CC1(C)C(C=C(Cl)Cl)C1C(=O)OCc1cccc(Oc2ccccc2)c1 (stereo not given) returns the recorded outcome of this test. -1

GET /call?item= CCCCCCC(C)OC(=O)COc1nc(F)c(Cl)c(N)c1Cl (stereo not given) returns the recorded outcome of this test. -1

GET /call?item= CN(C)C(=O)Nc1ccc(Cl)c(Cl)c1 returns the recorded outcome of this test. -1

GET /call?item= COc1c(Cl)ccc(Cl)c1C(=O)O returns the recorded outcome of this test. 1

GET /call?item= CCOC(=O)NCCOc1ccc(Oc2ccccc2)cc1 returns the recorded outcome of this test. -1

GET /call?item= COc1nc(C)nc(NC(=O)NS(=O)(=O)c2ccccc2OCCCl)n1 returns the recorded outcome of this test. -1

###

experiment: Tanguay_ZF_120hpf_ActivityScore_legacy: (Legacy) Oregon State University Tanguay Lab 120 Hour Post-fertilization zebrafish Assay Score for Activity (AID 2283742)
Calls of active or inactive are those of the source. Rule for the calls: active = hit-call score of the fitted dose curve at least 0.9, where 1 is the maximum; inconclusive = response in the unintended direction; inactive = score below 0.9.
Returns: one label drawn from active, inactive

GET /call?item= CCCOC(=O)c1ccc(C(=O)OCCC)nc1 returns the recorded outcome of this test. active

GET /call?item= O=C(O)c1ccccc1 returns the recorded outcome of this test. inactive

GET /call?item= c1ccc2[nH]c(-c3cscn3)nc2c1 returns the recorded outcome of this test. inactive

GET /call?item= C#C[C@]1(O)CC[C@H]2[C@@H]3CCC4=CC(=O)CC[C@@H]4[C@H]3CC[C@@]21CC returns the recorded outcome of this test. inactive

GET /call?item= CCCCOC(=O)[C@@H](C)Oc1ccc(Oc2ccc(C(F)(F)F)cn2)cc1 returns the recorded outcome of this test. inactive

GET /call?item= OB(O)O returns the recorded outcome of this test. inactive

GET /call?item= N#CSCSc1nc2ccccc2s1 returns the recorded outcome of this test. active

GET /call?item= CCCCCOC(=O)COc1cc(N2C(=O)C3=C(CCCC3)C2=O)c(F)cc1Cl returns the recorded outcome of this test. inactive

GET /call?item= CCCCOCCOCCOCc1cc2c(cc1CCC)OCO2 returns the recorded outcome of this test. active

GET /call?item= S=C([S-])NCCNC(=S)[S-].[Mn+2] returns the recorded outcome of this test. inactive

GET /call?item= COC(=O)c1ccc(I)cc1S(=O)(=O)NC(=O)Nc1nc(C)nc(OC)n1 returns the recorded outcome of this test. inactive

GET /call?item= CCN(CC)C(=O)c1cccc(C)c1 returns the recorded outcome of this test. inactive

GET /call?item= CN(C)C(=O)Nc1ccc(Cl)c(Cl)c1 returns the recorded outcome of this test. inactive

GET /call?item= CCCN(CCC)C(=O)SCC returns the recorded outcome of this test. inactive

GET /call?item= C=CCOC(Cn1ccnc1)c1ccc(Cl)cc1Cl (stereo unspecified) returns the recorded outcome of this test. active

GET /call?item= CC(=O)S[C@@H]1CC2=CC(=O)CC[C@]2(C)[C@H]2CC[C@@]3(C)[C@@H](CC[C@@]34CCC(=O)O4)[C@H]12 returns the recorded outcome of this test. inactive

GET /call?item= CCSC(=O)N(CC(C)C)CC(C)C returns the recorded outcome of this test. inactive

GET /call?item= CCCCC(CC)CN1C(=O)C2C3C=CC(C3)C2C1=O (stereo unspecified) returns the recorded outcome of this test. inactive

GET /call?item= CCOC(=O)C(C)Oc1ccc(Oc2cnc3cc(Cl)ccc3n2)cc1 (stereo unspecified) returns the recorded outcome of this test. inactive

GET /call?item= c1ccc(Nc2ccccc2)cc1 returns the recorded outcome of this test. active

GET /call?item= CCCCC(CC)COC(=O)c1ccccc1C(=O)O (stereo unspecified) returns the recorded outcome of this test. inactive

GET /call?item= C[C@]12CC[C@@H]3c4ccc(O)cc4C[C@@H](CCCCCCCCCS(=O)CCCC(F)(F)C(F)(F)F)[C@H]3[C@@H]1CC[C@@H]2O (stereo partly specified) returns the recorded outcome of this test. inactive

GET /call?item= COc1c(Cl)ccc(Cl)c1C(=O)O returns the recorded outcome of this test. inactive

GET /call?item= CC(C)CCCCCCc1ccc(O)cc1 returns the recorded outcome of this test. inactive

GET /call?item= Oc1ccc(C(c2ccc(O)cc2)C(Cl)(Cl)Cl)cc1 returns the recorded outcome of this test. active

GET /call?item= CC(C)(C)[C@@H](O)[C@@H](Cc1ccc(Cl)cc1)n1cncn1 returns the recorded outcome of this test. inactive

###

assay: APR_HepG2_MitoMembPot_24hr: Apredica 24-hour HepG2 Assay for Mitochondrial Membrane Potential (AID 2282911); conditions: imaging, actives raise or lower the signal
Calls of active or inactive are those of the source. The calls were made as follows: active = hit-call score of the fitted dose curve at least 0.9, where 1 is the maximum; inactive = score below 0.9.
Returns: one label drawn from Yes = active, No = inactive

GET /call?item= CCCCCOC(=O)COc1cc(N2C(=O)C3=C(CCCC3)C2=O)c(F)cc1Cl returns the recorded outcome of this test. No

GET /call?item= COC(=O)CSc1cc(N=c2sc(=O)n3n2CCCC3)c(F)cc1Cl returns the recorded outcome of this test. No

GET /call?item= CC(C)(C)[C@@H](O)[C@@H](Cc1ccc(Cl)cc1)n1cncn1 returns the recorded outcome of this test. Yes

GET /call?item= CN(C)C(=O)Nc1ccc(Cl)c(Cl)c1 returns the recorded outcome of this test. No

GET /call?item= CCCCC(CC)COC(=O)c1ccccc1C(=O)O (stereo not given) returns the recorded outcome of this test. No

GET /call?item= CCCN(CCC)C(=O)SCC returns the recorded outcome of this test. No

GET /call?item= CCCCCCC(C)OC(=O)COc1nc(F)c(Cl)c(N)c1Cl (stereo not given) returns the recorded outcome of this test. No

GET /call?item= COCCO returns the recorded outcome of this test. No

GET /call?item= CCC(O)=C1C(=O)CC(C(=O)O)CC1=O (stereo not given) returns the recorded outcome of this test. No

GET /call?item= CSC(=O)c1cccc2nnsc12 returns the recorded outcome of this test. No

GET /call?item= C#C[C@]1(O)CC[C@H]2[C@@H]3CCC4=CC(=O)CC[C@@H]4[C@H]3CC[C@@]21CC returns the recorded outcome of this test. No

GET /call?item= CCCCOC(=O)[C@@H](C)Oc1ccc(Oc2ccc(C(F)(F)F)cn2)cc1 returns the recorded outcome of this test. No

GET /call?item= CCOC(=O)NCCOc1ccc(Oc2ccccc2)cc1 returns the recorded outcome of this test. Yes

GET /call?item= COC(=O)c1ccccc1S(=O)(=O)NC(=O)Nc1nc(OC(F)F)cc(OC(F)F)n1 returns the recorded outcome of this test. No

GET /call?item= CCC(C)OC(=O)N1CCCCC1CCO (stereo not given) returns the recorded outcome of this test. No

GET /call?item= OB(O)O returns the recorded outcome of this test. No

GET /call?item= CCOC(=O)c1ccc(O)cc1 returns the recorded outcome of this test. No

GET /call?item= N#CSCSc1nc2ccccc2s1 returns the recorded outcome of this test. No

GET /call?item= CC(=O)S[C@@H]1CC2=CC(=O)CC[C@]2(C)[C@H]2CC[C@@]3(C)[C@@H](CC[C@@]34CCC(=O)O4)[C@H]12 returns the recorded outcome of this test. Yes

GET /call?item= COc1c(Cl)ccc(Cl)c1C(=O)O returns the recorded outcome of this test. No

GET /call?item= C#CCOC(=O)[C@@H](C)Oc1ccc(Oc2ncc(Cl)cc2F)cc1 returns the recorded outcome of this test. No

GET /call?item= CCN(Cc1c(F)cccc1Cl)c1c([N+](=O)[O-])cc(C(F)(F)F)cc1[N+](=O)[O-] returns the recorded outcome of this test. No

GET /call?item= Cc1nn(C)c(Oc2ccccc2)c1C=NOCc1ccc(C(=O)OC(C)(C)C)cc1 returns the recorded outcome of this test. No

GET /call?item= CCCOC(=O)NCCCN(C)C returns the recorded outcome of this test. No

GET /call?item= COc1nc(C)nc(NC(=O)NS(=O)(=O)c2ccccc2OCCCl)n1 returns the recorded outcome of this test. No

Origin of measurements: PubChem BioAssay (EPA / NIEHS)
